Biological target: glucocorticoid receptor (GR), recombinant full-length receptor protein (Homo sapiens, UniProt P04150)
Construct: 4 nM recombinant, full-length receptor protein was incubated with increasing concentrations of GR ligand
Sequence (P04150 whole entry): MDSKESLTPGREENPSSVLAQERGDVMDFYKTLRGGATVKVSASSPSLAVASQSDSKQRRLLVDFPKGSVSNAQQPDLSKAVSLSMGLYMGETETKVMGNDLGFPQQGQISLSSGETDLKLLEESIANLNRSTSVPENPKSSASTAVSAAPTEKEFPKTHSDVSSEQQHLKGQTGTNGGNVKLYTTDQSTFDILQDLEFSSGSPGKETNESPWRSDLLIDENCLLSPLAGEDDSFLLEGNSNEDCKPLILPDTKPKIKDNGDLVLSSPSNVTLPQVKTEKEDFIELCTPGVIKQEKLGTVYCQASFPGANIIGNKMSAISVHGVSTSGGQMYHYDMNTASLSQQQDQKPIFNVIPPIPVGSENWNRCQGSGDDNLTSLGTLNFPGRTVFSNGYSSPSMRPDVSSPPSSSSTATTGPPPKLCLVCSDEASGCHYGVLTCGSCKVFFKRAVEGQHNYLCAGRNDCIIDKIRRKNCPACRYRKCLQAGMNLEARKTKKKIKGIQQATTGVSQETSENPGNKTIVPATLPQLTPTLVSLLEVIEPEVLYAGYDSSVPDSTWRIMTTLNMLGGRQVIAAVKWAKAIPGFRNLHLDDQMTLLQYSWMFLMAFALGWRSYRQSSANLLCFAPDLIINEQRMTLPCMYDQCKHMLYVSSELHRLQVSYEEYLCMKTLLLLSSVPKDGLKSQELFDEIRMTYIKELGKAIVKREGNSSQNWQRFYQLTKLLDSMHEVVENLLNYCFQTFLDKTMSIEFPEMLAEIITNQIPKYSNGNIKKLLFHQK
Test: Glucocorticoid receptor binding assay (fluorescence polarization kit)
Conditions: 4 nM receptor, 2.5 nM Fluormone GS1 tracer, 2h room temperature, read-out: GR binding ABS IC50
pIC50: −log10 of the molar value.
A collection of compounds and their measured pIC50

>  <compound>
C[C@H](NC(=O)c1ccnn1C)[C@H](Oc1ccc(C(=O)O[C@H]2CCCN(C(=O)[C@H]3COC(=O)C3)C2)cc1)c1ccc(C2CC2)cc1 [Compound 35]

>  <pIC50>
> 7.00

$$$$
>  <compound>
C[C@H](NC(=O)C1(O)CCC1)[C@H](Oc1ccc(C(=O)N[C@H]2CCCN(C(=O)[C@H]3COC(=O)C3)C2)nc1)c1ccc(C2CC2)cc1 [Compound 17]

>  <pIC50>
6.52 to 7.00

$$$$
>  <compound>
C[C@H](NC(=O)[C@H]1CCCO1)[C@H](Oc1ccc(C(=O)O[C@H]2CCCN(C(=O)[C@@H]3COC(=O)C3)C2)cc1)c1ccc(C2CC2)cc1 [Compound 77]

>  <pIC50>
> 7.00

$$$$

stdin: // fetch pIC50 given entry C[C@H](NC(=O)c1ncco1)[C@H](Oc1ccc(C(=O)O[C@H]2CCCN(C(=O)[C@H]3COC(=O)C3)C2)cc1)c1ccc(C2CC2)cc1 [Compound 49]
stdout: > 7.00
